B1: PI4K2A (parent)
chain: FVKDPQGRIIAVFKPKNEEPYGHL

# Variants of: B1
# test.description: protein stability index of a GFP-peptide fusion (GPS, HEK-293T) (PSI 1-6); higher = more stable;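 further: lentivirally expressed fusions sorted by FACS into six bins by GFP to DsRed ratio, PSI derived from sequencing read proportions per bin multiplied by bin number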
# settings: c terminus: a fixed tail appended

{"columns": ["mutant.designation", "protein stability index"],
 "data": [
  ["V12A", 3.17],
  ["K16G", 1.46],
  ["E19D", 2.16],
  ["V2L", 2.45],
  ["K3H", 1.68],
  ["K14D", 2.49],
  ["F13W", 2.13],
  ["D4E", 1.49],
  ["P20M", 2.65],
  ["L24R", 1.42],
  ["Y21E", 1.44]
]}
